The measurements presented in this section are drawn from patent US20230113944A1.

# TGT: human nSMase2 (Homo sapiens)
# Construct: expressed in transfected cells; host or cells: HEK293T
# Sequence (Q9NY59 1-655): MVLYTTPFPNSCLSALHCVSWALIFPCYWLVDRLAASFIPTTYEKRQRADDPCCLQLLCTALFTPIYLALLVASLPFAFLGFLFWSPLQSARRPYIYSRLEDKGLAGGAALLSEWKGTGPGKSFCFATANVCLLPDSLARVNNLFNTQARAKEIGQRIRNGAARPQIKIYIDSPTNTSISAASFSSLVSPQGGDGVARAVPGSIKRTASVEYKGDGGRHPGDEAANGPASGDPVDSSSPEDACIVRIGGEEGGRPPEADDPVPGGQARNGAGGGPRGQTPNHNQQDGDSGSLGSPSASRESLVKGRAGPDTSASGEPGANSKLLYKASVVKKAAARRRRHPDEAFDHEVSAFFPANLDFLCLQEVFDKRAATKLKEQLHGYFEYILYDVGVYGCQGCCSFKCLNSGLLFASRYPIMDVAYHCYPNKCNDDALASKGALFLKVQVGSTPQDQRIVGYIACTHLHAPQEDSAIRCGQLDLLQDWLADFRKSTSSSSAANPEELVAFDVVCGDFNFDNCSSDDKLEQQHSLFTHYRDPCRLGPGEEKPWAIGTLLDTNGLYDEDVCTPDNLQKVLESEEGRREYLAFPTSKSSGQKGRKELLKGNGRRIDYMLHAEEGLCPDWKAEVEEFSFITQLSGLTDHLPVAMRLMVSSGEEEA
# MEASUREMENT_PROTOCOL: biochemical
# Format: biochemical
# EXPERIMENTAL_SETUP: IC50 (nSMase2) Groups: A-D
pIC50: −log10 of the molar value.
Below: a set of entries, each annotated with reported pIC50.

Worked cases, pIC50 given:
COMPOUND	TGT	pIC50
C[C@@]12CCO[C@@H]1Nc1ncccc12	human nSMase2 (Homo sapiens)	< 4.30
COc1cccc(NC(=O)Oc2ccc3c(c2)[C@]2(C)CCO[C@@H]2N3C)c1 [drawing 34]	human nSMase2 (Homo sapiens)	5.00 to 6.00
C[C@@]12CCO[C@@H]1Nc1ccc(OCc3ccccc3)nc12	human nSMase2 (Homo sapiens)	< 4.30
CN1c2ccc(OC(=O)Nc3ccc(C(F)(F)F)cc3)cc2[C@]2(C)CCO[C@H]12 [drawing 64]	human nSMase2 (Homo sapiens)	5.00 to 6.00

Lab book: pIC50 of `C=CC[C@@]12CCO[C@@H]1Nc1ccc(OC)nc12` noted as < 4.30

Lab book: pIC50 of `C=CC[C@@]12CCN(S(=O)(=O)c3ccc(C)cc3)[C@@H]1Nc1ccc(OC)nc12` noted as < 4.30

Lab book: pIC50 of `COC(=O)N1CCC[C@@]2(C)c3nc(OC)ccc3N[C@@H]12` noted as < 4.30

Lab book: pIC50 of CN1c2ccc(OC(=O)Nc3ccncc3F)cc2[C@]2(C)CCO[C@H]12 [drawing 62] noted as > 6.00

Lab book: pIC50 of `COc1ccc2c(n1)[C@]1(c3ccccc3)CCO[C@@H]1N2` noted as < 4.30
